Tested on: BT20
Assay: cells
Settings: Homo sapiens, BT-20, 6 h, read-out: AZD5991 6h EC50
Recorded Endpoint: EC50

EC50 measured on Cc1c2c(nn1C)CSCc1cc(n(C)n1)CSc1cc(c3ccccc3c1)OCCCc1c(C(=O)O)n(C)c3c-2c(Cl)ccc13 (atropisomer, axis not shown; (Ra)) [(Ra)-7] = > 30 µM

###

Tested on: OVCAR3
Test: cells
Details: Homo sapiens, OVCAR-3, 6 h, read-out: AZD5991 6h EC50
Recorded Endpoint: EC50

Entry Cc1c2c(nn1C)CSCc1cc(n(C)n1)CSc1cc(c3ccccc3c1)OCCCc1c(C(=O)O)n(C)c3c-2c(Cl)ccc13 (atropisomer, axis not shown; (Ra)) [(Ra)-7] ; EC50 = > 30 µM

###

Tested on: HCC1187
Experiment: cells
Conditions: Homo sapiens, HCC1187, 6 h, read-out: AZD5991 6h EC50
Description: Cells were plated at 3000 cells/well in 384-well white plates in corresponding cell growth media. […] Caspase-3/7 activation was subsequently determined using a Caspase-Glo 3/7 Reagent (Promega) and viability was assayed using the CellTiter-Glo Reagent (Promega) as described in manufacturer’s instructions. Dose–response curves for caspase-3/7 activation and viability were plotted and analyzed (including EC50 and GI50 determination) using GraphPad Prism. […]
Recorded Endpoint: pEC50
Give only the number. pEC50 is defined as minus log10 of concentration in molar units.

Recorded result, Cc1c2c(nn1C)CSCc1cc(n(C)n1)CSc1cc(c3ccccc3c1)OCCCc1c(C(=O)O)n(C)c3c-2c(Cl)ccc13 (atropisomer, axis not shown; (Ra)) [(Ra)-7] , pEC50: 6.63

###

Target sequence: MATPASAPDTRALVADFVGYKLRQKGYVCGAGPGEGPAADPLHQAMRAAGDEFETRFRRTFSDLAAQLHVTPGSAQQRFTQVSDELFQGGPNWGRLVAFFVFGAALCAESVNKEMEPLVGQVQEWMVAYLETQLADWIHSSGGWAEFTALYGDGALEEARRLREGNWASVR
Recorded Endpoint: pIC50
Keep it numeric: pIC50 is minus log10 of the concentration in mol/L.

Reported pIC50 for Cc1c2c(nn1C)CSCc1cc(n(C)n1)CSc1cc(c3ccccc3c1)OCCCc1c(C(=O)O)n(C)c3c-2c(Cl)ccc13 (atropisomer, axis not shown; (Ra)) [(Ra)-7] was 4.31

###

System: HEL92.1.7
Assay: Caspase-3/7 activation assay
Assay type: cell-based
Conditions: Homo sapiens, HEL 92.1.7, 6 h, read-out: 6h caspase EC50; HEL9217, single agent
Recorded Endpoint: EC50

CC1(C)CCC(CN2CCN(c3ccc(C(=O)NS(=O)(=O)c4ccc(NCC5CCOCC5)c([N+](=O)[O-])c4)c(Oc4cnc5[nH]ccc5c4)c3)CC2)=C(c2ccc(Cl)cc2)C1 [venetoclax, reference compound] : > 333 nM

As a next step, examine the compound that follows.
get_value(item= Cc1c2c(nn1C)CSCc1cc(n(C)n1)CSc1cc(c3ccccc3c1)OCCCc1c(C(=O)O)n(C)c3c-2c(Cl)ccc13 (atropisomer, axis not shown; (Ra)) [(Ra)-7] , readout=EC50) returns > 333 nM

###

Tested on: JVM2
Assay: cells
Conditions: Homo sapiens, JVM-2, 6 h, read-out: AZD5991 6h EC50
Recorded Endpoint: EC50
Answer with the figure and its unit, nothing else.

The compound listed as Cc1c2c(nn1C)CSCc1cc(n(C)n1)CSc1cc(c3ccccc3c1)OCCCc1c(C(=O)O)n(C)c3c-2c(Cl)ccc13 (atropisomer, axis not shown; (Ra)) [(Ra)-7] shows EC50 equal to 1030 nM

###

Tested on: A101D
Test: cells
Details: Homo sapiens, 6 h, read-out: AZD5991 6h EC50
Method: Cells were plated at 3000 cells/well in 384-well white plates in corresponding cell growth media. […] Caspase-3/7 activation was subsequently determined using a Caspase-Glo 3/7 Reagent (Promega) and viability was assayed using the CellTiter-Glo Reagent (Promega) as described in manufacturer’s instructions. Dose–response curves for caspase-3/7 activation and viability were plotted and analyzed (including EC50 and GI50 determination) using GraphPad Prism. […]
Recorded Endpoint: pEC50
// scale note: pEC50 = -log10(conc_M); give the bare number

The molecule Cc1c2c(nn1C)CSCc1cc(n(C)n1)CSc1cc(c3ccccc3c1)OCCCc1c(C(=O)O)n(C)c3c-2c(Cl)ccc13 (atropisomer, axis not shown; (Ra)) [(Ra)-7] on A101D: pEC50 was 5.82

###

Test system: HCC827
Test: cells
Details: Homo sapiens, HCC827, 6 h, read-out: AZD5991 6h EC50
Recorded Endpoint: EC50

The molecule identified as Cc1c2c(nn1C)CSCc1cc(n(C)n1)CSc1cc(c3ccccc3c1)OCCCc1c(C(=O)O)n(C)c3c-2c(Cl)ccc13 (atropisomer, axis not shown; (Ra)) [(Ra)-7] registered its EC50 at > 30 µM

###

Tested on: Sudhl6
Test: cells
Settings: Homo sapiens, SU-DHL-6, 6 h, read-out: AZD5991 6h EC50
Recorded Endpoint: pEC50
Field pEC50 (float): negative decimal logarithm of the concentration in molar.

Entry Cc1c2c(nn1C)CSCc1cc(n(C)n1)CSc1cc(c3ccccc3c1)OCCCc1c(C(=O)O)n(C)c3c-2c(Cl)ccc13 (atropisomer, axis not shown; (Ra)) [(Ra)-7] : pEC50 on Sudhl6 = 7.25

###

Test system: A253
Test: cells
Conditions: Homo sapiens, A253, 6 h, read-out: AZD5991 6h EC50
Recorded Endpoint: EC50

The compound identified as Cc1c2c(nn1C)CSCc1cc(n(C)n1)CSc1cc(c3ccccc3c1)OCCCc1c(C(=O)O)n(C)c3c-2c(Cl)ccc13 (atropisomer, axis not shown; (Ra)) [(Ra)-7] registered its EC50 at > 30 µM

Values from paper PMC6297231
